# SYSTEM UNDER TEST: T1, human CCR8 (human, UniProt P51685 1-355)
# T1 construct: whole, on cells; also called hCCR8
# T1 sequence (P51685 whole entry): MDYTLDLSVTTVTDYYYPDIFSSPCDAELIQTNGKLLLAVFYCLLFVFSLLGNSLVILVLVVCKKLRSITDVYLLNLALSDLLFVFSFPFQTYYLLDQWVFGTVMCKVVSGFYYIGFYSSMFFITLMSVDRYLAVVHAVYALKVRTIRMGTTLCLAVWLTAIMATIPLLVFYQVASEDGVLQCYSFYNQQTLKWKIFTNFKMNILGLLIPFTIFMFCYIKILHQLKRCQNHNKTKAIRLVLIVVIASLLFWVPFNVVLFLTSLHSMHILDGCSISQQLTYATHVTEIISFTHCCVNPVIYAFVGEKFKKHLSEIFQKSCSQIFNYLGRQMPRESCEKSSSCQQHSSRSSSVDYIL
# RUN DESCRIPTION: FACS, competition with CCL1 on CHO-K1-human CCR8 cells
Listing: IC50 of selected binders
In your response, put the unit directly after the numeric value.

Here's what some known entries look like.
| BINDER | IC50 |
| --- | --- |
| Hu149-16 (antibody, human IgG1, V domains shown, human IgG1) VH: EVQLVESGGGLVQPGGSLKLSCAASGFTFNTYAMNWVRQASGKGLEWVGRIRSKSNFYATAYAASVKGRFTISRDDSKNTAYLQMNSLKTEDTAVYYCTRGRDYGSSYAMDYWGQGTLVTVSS VL: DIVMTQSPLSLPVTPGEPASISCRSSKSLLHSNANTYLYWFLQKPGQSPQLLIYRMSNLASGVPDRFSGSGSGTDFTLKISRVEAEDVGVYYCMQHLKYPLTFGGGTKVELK | 114 pM |
| Hu149-15 (antibody, human IgG1, V domains shown, human IgG1) VH: EVQLVESGGGLVQPGGSLKLSCAASGFTFNTYAMNWVRQAPGKGLEWVGRIRSKSNFYATAYAASVKGRFTISRDDSKNTAYLQMNSLKTEDTAVYYCTRGRDYGSSYAMDYWGQGTLVTVSS VL: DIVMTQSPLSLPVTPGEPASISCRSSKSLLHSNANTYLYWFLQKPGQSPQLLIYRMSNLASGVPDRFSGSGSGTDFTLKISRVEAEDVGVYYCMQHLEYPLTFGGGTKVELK | 104 pM |
| Hu149-14 (antibody, human IgG1, V domains shown, human IgG1) VH: EVQLVESGGGLVQPGGSLKLSCAASGFTFNTYAMNWVRQASGKGLEWVGRIRSKSNFYATAYAASVKGRFTISRDDSKNTAYLQMNSLKTEDTAVYYCTRGREYGSAYAMDYWGQGTLVTVSS VL: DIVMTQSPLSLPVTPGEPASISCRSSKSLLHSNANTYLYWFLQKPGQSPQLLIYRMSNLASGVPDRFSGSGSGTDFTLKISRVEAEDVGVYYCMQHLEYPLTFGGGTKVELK | 81.6 pM |
| Hu149-19 (antibody, human IgG1, V domains shown, human IgG1) VH: EVQLVESGGGLVQPGGSLKLSCAASGFTFNTYAMNWVRQASGKGLEWVGRIRSKSNFYATAYAASVKGRFTISRDDSKNTAYLQMNSLKTEDTAVYYCTRGREYGSSYAMDYWGQGTLVTVSS VL: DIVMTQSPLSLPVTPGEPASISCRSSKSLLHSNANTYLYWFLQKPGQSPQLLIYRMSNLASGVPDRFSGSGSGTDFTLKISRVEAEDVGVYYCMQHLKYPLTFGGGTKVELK | 168 pM |

Hu149-18 (antibody, human IgG1, V domains shown, human IgG1) VH: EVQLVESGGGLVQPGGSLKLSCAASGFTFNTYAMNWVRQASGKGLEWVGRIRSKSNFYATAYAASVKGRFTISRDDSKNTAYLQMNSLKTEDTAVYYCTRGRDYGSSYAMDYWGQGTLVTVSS VL: DIVMTQSPLSLPVTPGEPASISCRSSKSLLHSNANTYLYWFLQKPGQSPQLLIYRMSNLASGVPDRFSGSGSGTDFTLKISRVEAEDVGVYYCMQHLRYPLTFGGGTKVELK has a reported IC50 of 61.4 pM
